Assign IC50 to each entry below.
Target: B1 bradykinin receptor (Homo sapiens)
Sequence (P46663 whole entry): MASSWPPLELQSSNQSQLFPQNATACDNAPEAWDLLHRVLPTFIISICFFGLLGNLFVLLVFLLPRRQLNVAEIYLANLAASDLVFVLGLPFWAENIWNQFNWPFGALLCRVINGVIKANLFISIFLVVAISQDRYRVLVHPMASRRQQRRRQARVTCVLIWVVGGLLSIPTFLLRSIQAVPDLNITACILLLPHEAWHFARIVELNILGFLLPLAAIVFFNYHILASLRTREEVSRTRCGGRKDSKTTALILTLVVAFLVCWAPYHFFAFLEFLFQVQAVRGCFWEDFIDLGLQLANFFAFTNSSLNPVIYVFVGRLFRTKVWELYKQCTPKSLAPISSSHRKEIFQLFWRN
Assay: Inhibition of human B1 receptor
# value in nM; strip the unit string

Give the reported IC50 for this compound. "O=C(C[C@@H]1CCCCN1S(=O)(=O)c1cccc(C(F)(F)F)c1)N[C@@H]1CCCc2cc(CNCC(F)(F)F)ccc21"
1900

Give the reported IC50 for this compound. "CC(C)NCc1ccc2c(c1)CCC[C@H]2NC(=O)C[C@@H]1CCCCN1S(=O)(=O)c1cccc(C(F)(F)F)c1"
72

Give the reported IC50 for this compound. "CC(C)(C)NCc1ccc2c(c1)CCC[C@H]2NC(=O)C[C@@H]1CCCCN1S(=O)(=O)c1ccccc1"
1700

Give the reported IC50 for this compound. "CC(C)(C)CNCc1ccc2c(c1)CCC[C@H]2NC(=O)C[C@@H]1CCCCN1S(=O)(=O)c1cccc(C(F)(F)F)c1"
59

---

Assign pIC50 to each entry below.
Target: UniProt:P46663
Assay: Inhibition of human B1 receptor
Here pIC50 is given on a logarithmic scale as minus log10 of the concentration in mol/L.

Give the reported pIC50 for this compound. "CC(C)(C)NCc1ccc2c(c1)OCC[C@H]2NC(=O)C[C@@H]1CCCN1S(=O)(=O)c1cccc(C(F)(F)F)c1"
5.82

Give the reported pIC50 for this compound. "COc1ccc(S(=O)(=O)N2CCCC[C@H]2CC(=O)N[C@@H]2CCCc3cc(CNC(C)(C)C)ccc32)cc1"
6.11

Give the reported pIC50 for this compound. "Cc1ccc(S(=O)(=O)N2CCCC[C@H]2CC(=O)N[C@@H]2CCCc3cc(CNC(C)(C)C)ccc32)cc1Cl"
7.82

Give the reported pIC50 for this compound. "CC(C)(C)NCc1ccc2c(c1)CCC[C@H]2NC(=O)C[C@@H]1CCCCN1S(=O)(=O)c1cccc2nsnc12"
6.82

---

Target: B1 bradykinin receptor (Homo sapiens)
Test: Inhibition of human B1 receptor by calcium influx functional assay
valueType: pIC50
Here pIC50 is given on a logarithmic scale as minus log10 of the concentration in mol/L.

Give the reported pIC50 for this molecule. "COCCNCc1ccc2c(c1)CCC[C@H]2NC(=O)C[C@@H]1CCCCN1S(=O)(=O)c1cccc(C(F)(F)F)c1"
7.34

Give the reported pIC50 for this molecule. "O=C(C[C@@H]1CCCCN1S(=O)(=O)c1cccc(C(F)(F)F)c1)N[C@@H]1CCCc2cc(CNC3CCC3)ccc21"
7.27

Give the reported pIC50 for this molecule. "Cc1ccc(S(=O)(=O)N2CCCC[C@H]2CC(=O)N[C@@H]2CCCc3cc(CNC(C)(C)C)ccc32)cc1"
6.89

Give the reported pIC50 for this molecule. "Cc1ccc(S(=O)(=O)N2CCCC[C@H]2CC(=O)N[C@@H]2CCCc3cc(CNC(C)(C)C)ccc32)cc1C(F)(F)F"
7.80

Give the reported pIC50 for this molecule. "CC(C)(C)NCc1ccc2c(c1)CCC[C@H]2NC(=O)C[C@@H]1CCCCN1S(=O)(=O)c1ccc(-c2ccccc2)cc1"
6.27

Give the reported pIC50 for this molecule. "O=C(C[C@@H]1CCCCN1S(=O)(=O)c1cccc(C(F)(F)F)c1)N[C@@H]1CCCc2cc(CN3CCC3)ccc21"
5.37

Give the reported pIC50 for this molecule. "CC(C)(C)NCc1ccc2c(c1)CCC[C@H]2NC(=O)C[C@@H]1CCCCN1S(=O)(=O)c1cccc(Cl)c1"
7.14

Give the reported pIC50 for this molecule. "CC(C)(C)NCc1ccc2c(c1)CCC[C@H]2NC(=O)C[C@@H]1CCCCN1S(=O)(=O)c1ccc(C(F)(F)C(F)(F)F)cc1"
6.68

Give the reported pIC50 for this molecule. "CC(C)NCc1ccc2c(c1)CCC[C@H]2NC(=O)C[C@@H]1CCCCN1S(=O)(=O)c1cccc(C(F)(F)F)c1"
6.96

Give the reported pIC50 for this molecule. "CCCCOc1ccc(S(=O)(=O)N2CCCC[C@H]2CC(=O)N[C@@H]2CCCc3cc(CNC(C)(C)C)ccc32)cc1"
6.23

Give the reported pIC50 for this molecule. "CC(C)(C)NCc1ccc2c(c1)CCC[C@H]2NC(=O)C[C@@H]1CCCCN1S(=O)(=O)c1ccc(Cl)cc1"
6.09

Give the reported pIC50 for this molecule. "CC(C)(C)CNCc1ccc2c(c1)CCC[C@H]2NC(=O)C[C@@H]1CCCCN1S(=O)(=O)c1cccc(C(F)(F)F)c1"
6.64

Give the reported pIC50 for this molecule. "COc1ccc(S(=O)(=O)N2CCCC[C@H]2CC(=O)N[C@@H]2CCCc3cc(CNC(C)(C)C)ccc32)cc1"
5.85

Give the reported pIC50 for this molecule. "CC(C)(C)NCc1ccc2c(c1)CCC[C@H]2NC(=O)C[C@@H]1CCCCN1S(=O)(=O)c1cccc2cccnc12"
6.36
